Source of measurements: PubChem BioAssay AID588588

# tested_on: glucose-6-phosphate dehydrogenase-6-phosphogluconolactonase (Plasmodium falciparum 3D7)
# protocol_description: PfG6PD enzyme inhibitors, direct NADPH readout, SAR follow-up, orthogonal assay, biochemical, end-point NADPH detection (AID 588588)
# test_context: recombinant PfG6PD-6PGL
The source made the active and inactive calls. No rule for the calls is given here.
Outcome codes: active, inactive

| compound | class_label |
| --- | --- |
| O=C1COc2ccc(C(=O)NCCN3CCOCC3)cc2N1 | inactive |
| O=C1Nc2cc(C(=O)NCCN3CCCCC3)ccc2S/C1=C\c1ccccc1F | inactive |
| CCC(C)N(CCNC(=O)c1ccc2c(c1)NC(=O)c1ccccc1S2)C1CCCCC1 (stereo not given) | active |
| CCCN(CCC)CCNC(=O)c1ccc2c(c1)NC(=O)/C(=C\c1ccc(C)cc1)S2 | inactive |
| CN(C)CCNC(=O)c1ccc2c(c1)NC(=O)/C(=C/c1ccccc1F)S2 | inactive |

====

# tested_on: glucose-6-phosphate dehydrogenase-6-phosphogluconolactonase (Plasmodium falciparum 3D7)
# protocol_description: PfG6PD enzyme inhibitors, direct NADPH readout, SAR follow-up, orthogonal assay, biochemical, end-point NADPH detection (AID 588588)
# test_context: recombinant PfG6PD-6PGL
Active and inactive are the calls of the source. How the calls were made is not given here.
Outcome codes: active, inactive

| compound | class_label |
| --- | --- |
| O=C(Nc1nnc(S(=O)(=O)N2CCOCC2)s1)c1cccc(F)c1 | inactive |
| COc1ccc(/C=C2/Sc3ccc(C(=O)NCCN4CCCCCC4)cc3NC2=O)cc1 | inactive |
| O=C1Nc2cc(C(=O)NCCN3CCCC3)ccc2S/C1=C/c1ccccc1Cl | inactive |
| CN(C)CCNC(=O)c1ccc2c(c1)NC(=O)CO2 | inactive |
| O=C(NCCN1CCCCC1)c1ccc2c(c1)NC(=O)c1ccccc1O2 | active |
| O=C1Nc2cc(C(=O)NCCN3CCCC3)ccc2S/C1=C/c1ccccc1F | inactive |
| CCN1CCCC1CNC(=O)c1ccc2c(c1)NC(=O)/C(=C\c1ccccc1F)S2 (stereo unspecified) | inactive |
| CCN(CC)CCNC(=O)c1ccc2c(c1)NC(=O)/C(=C\c1cccc(C)c1)S2 | inactive |
| CCN(CCNC(=O)c1ccc2c(c1)NC(=O)c1ccccc1S2)c1ccccc1 | inactive |
| CCN1CCC[C@@H]1CNC(=O)c1ccc2c(c1)NC(=O)/C(=C/c1ccccc1F)S2 | inactive |
| CN(CCNC(=O)c1ccc2c(c1)NC(=O)c1ccccc1S2)C1CCCCC1 | inactive |
| CCCN(CCC)CCNC(=O)c1ccc2c(c1)NC(=O)/C(=C/c1ccccc1)S2 | inactive |
| CCN1CCCC1CNC(=O)c1ccc2c(c1)N(Cc1ccc(C(F)(F)F)cc1)C(=O)c1ccccc1S2 (stereo unspecified) | inactive |
| CCN(CC)CCNC(=O)c1ccc2c(c1)NC(=O)/C(=C\c1ccc(OC)cc1)S2 | inactive |
| Cc1ccc(C(=O)Nc2nnc(S(=O)(=O)N3CCCCCC3)s2)cc1 | inactive |
| CCN1CCCC1CNC(=O)c1ccc2c(c1)NC(=O)/C(=C/c1ccccc1C)S2 (stereo unspecified) | inactive |
| COc1cccc(/C=C2/Sc3ccc(C(=O)NCCN4CCCCCC4)cc3NC2=O)c1 | inactive |
| CCN(CC)CCNC(=O)c1ccc2c(c1)NC(=O)/C(=C\c1ccc(OC)c(OC)c1)S2 | inactive |
| O=C1Nc2cc(C(=O)NCc3ccccc3)ccc2S/C1=C\c1ccccc1F | inactive |
| CCN(CC)CCNC(=O)c1ccc2c(c1)NC(=O)/C(=C/c1ccccc1)S2 | inactive |
| Cc1cccc(C(=O)Nc2nnc(S(=O)(=O)N3c4ccccc4CC3C)s2)c1 (stereo unspecified) | inactive |
